Biological target: acetylcholinesterase (Homo sapiens, UniProt P22303)
Sequence (P22303 32-614): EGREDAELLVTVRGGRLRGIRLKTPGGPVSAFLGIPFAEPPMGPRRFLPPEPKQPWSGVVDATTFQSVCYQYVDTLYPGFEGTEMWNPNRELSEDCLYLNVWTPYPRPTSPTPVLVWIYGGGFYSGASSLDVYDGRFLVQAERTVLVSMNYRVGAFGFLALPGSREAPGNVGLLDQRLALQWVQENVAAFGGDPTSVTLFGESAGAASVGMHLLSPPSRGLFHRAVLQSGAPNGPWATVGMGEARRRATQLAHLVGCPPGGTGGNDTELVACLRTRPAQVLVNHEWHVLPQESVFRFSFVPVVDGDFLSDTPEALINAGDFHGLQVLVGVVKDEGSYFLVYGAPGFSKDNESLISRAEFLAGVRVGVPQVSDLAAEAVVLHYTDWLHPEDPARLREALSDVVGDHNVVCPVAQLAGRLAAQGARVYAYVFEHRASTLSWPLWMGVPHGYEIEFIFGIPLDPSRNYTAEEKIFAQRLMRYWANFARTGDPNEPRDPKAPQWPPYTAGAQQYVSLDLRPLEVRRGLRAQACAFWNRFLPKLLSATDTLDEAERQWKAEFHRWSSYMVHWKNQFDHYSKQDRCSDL
Assay: Acetylcholinesterase Inhibition Assay (photometric method of Ellman et al.)
Assay type: biochemical
Readout label: IC50 (µM)
Answers are plain numbers, in µM.

Prompt: Data request, read-out IC50, for `CC(C)OC(=O)Oc1ccc2c3c1O[C@H]1C[C@@H](O)C=C[C@@]31CCN(C)C2`
Response: 1.61

----------
Biological target: acetylcholinesterase (Homo sapiens, UniProt P22303)
Experiment: Acetylcholinesterase Inhibition Assay (photometric method of Ellman et al.)
Assay type: biochemical
Settings: photometric method of Ellman et al.; read-out: IC50 CHE I
Counter-ions that a name gives are not always drawn.
Readout label: IC50 (nM)
Answers are plain numbers, in nM.

Prompt: Entry CN1CC[C@@]23C=C[C@H](O)C[C@@H]2Oc2c(OC(=O)C(C)(C)C)ccc(c23)C1 [Example 3, hydrochloride] : reported IC50 = ?
Response: 2690

Data origin: patent US6316439A
